Assay: ATG_M_32_CIS: Attagene CIS-FACTORIAL HepG2 Assay for M32 Transcription Factor (Internal Marker) (AID 2282949);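 also: background control marker of the multiplexed CIS panel rather than a real target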
Conditions: HepG2 Attagene cis-factorial M32 reporter, mRNA; actives raise or lower the signal
Active and inactive are the calls of the source. The calls were made as follows: active = hit-call score of the fitted dose curve at least 0.9, where 1 is the maximum; inactive = score below 0.9.
PROPERTY NAME: outcome

Previously resolved entries follow.
{"columns": ["MOLECULE", "PROPERTY NAME", "RESULT"],
 "data": [
  ["NC(CO)(CO)CO", "outcome", "inactive"],
  ["c1ccc(CCCc2ccncc2)cc1", "outcome", "inactive"],
  ["C=C1[C@H]2CC[C@@H]3[C@H]2C(C)(C)CCC[C@]13C", "outcome", "inactive"],
  ["CC(=O)OCC(=O)[C@@]12N=C(C)O[C@@H]1C[C@H]1[C@@H]3CCC4=CC(=O)C=C[C@]4(C)[C@H]3[C@@H](O)C[C@@]12C", "outcome", "inactive"],
  ["Cc1ccc(C(C)(C)C)cc1", "outcome", "inactive"],
  ["Cc1cccc(N)n1", "outcome", "inactive"],
  ["c1ccc(-c2ccccn2)nc1", "outcome", "inactive"],
  ["CCc1c(C(=O)O)c(=O)cnn1-c1ccc(Cl)cc1", "outcome", "inactive"]
]}

Problem: Which measured outcome value corresponds to CCN(CCO)c1cccc(C)c1 ?
Result: inactive

Problem: Same thing, different molecule: O=C1CCCCCCCCCCC(=O)OCCO1
Result: inactive

Problem: Same thing, different molecule: Clc1nc2ccccc2s1
Result: inactive

Problem: Same thing, different molecule: CC/C=C\C/C=C\C/C=C\CCCCCCCC(=O)O
Result: inactive

Problem: Same thing, different molecule: C=CC=CC=CCCCCC
Result: inactive

Problem: Same thing, different molecule: CC(=O)Oc1ccc(C(C)=O)cc1
Result: inactive
